Data provenance: patent US10556944B2

- target_of_assay: anti-TNFα antibody-Fab (IgG-Fab derived from anti-TNFα monoclonal antibody, adalimumab) (Homo sapiens, UniProt P01834+P01857)
- Construct: cleaving a humanized monoclonal IgG formulation as a starting material into a Fab fragment and an Fc fragment by papain; purchased
- protocol_text: Biacore 3000 surface plasmon resonance, affinity of SpG-β1 mutants for immobilized IgG-Fab
- Format: binding
- condition_set: Table 2, Example 3; GST-fused one-domain peptide; 25° C., pH 7.4
Where no end group is shown, it is not given here.
Examples of substances with documented kon follow.

{"columns": ["substance", "kon / s/M"],
 "data": [
  ["K13T/E19I/A23T/T25M/F30L: GST-fused one-domain SpG-β1 mutant, amino acid SEQ ID NO: 49 (TTYKLILNGKTLTGETTTIAVDTAMAEKVLKQYANDNGVDGEWTYDDATKTFTVTE; also: GST-fused)", 102000],
  ["K13T/E19I/K28N/E42K: GST-fused one-domain SpG-β1 mutant, amino acid SEQ ID NO: 39 (TTYKLILNGKTLTGETTTIAVDAATAENVFKQYANDNGVDGKWTYDDATKTFTVTE; also: GST-fused)", 137000],
  ["K13T/V21I/A23T/F30L/E42L: GST-fused one-domain SpG-β1 mutant, amino acid SEQ ID NO: 25 (TTYKLILNGKTLTGETTTEAIDTATAEKVLKQYANDNGVDGLWTYDDATKTFTVTE; also: GST-fused)", 85000],
  ["K10R/K13T/E15Q/K28R/F30L/D36G/E42V: GST-fused one-domain SpG-β1 mutant, amino acid SEQ ID NO: 69 (TTYKLILNGRTLTGQTTTEAVDAATAERVLKQYANGNGVDGVWTYDDATKTFTVTE; also: GST-fused, end not given here)", 115000]
]}

====

Examples of substances with documented KA Vs. Wild follow.
- target_of_assay: anti-TNFα antibody-Fab (IgG-Fab derived from anti-TNFα monoclonal antibody, adalimumab) (Homo sapiens, UniProt P01834+P01857)
- Construct: cleaving a humanized monoclonal IgG formulation as a starting material into a Fab fragment and an Fc fragment by papain; purchased
- protocol_text: Biacore 3000 surface plasmon resonance, affinity of SpG-β1 mutants for immobilized IgG-Fab
- Type: binding
- condition_set: Table 3, Example 4; fold of wild-type KA of the same construct type

{"columns": ["substance", "KA Vs. Wild"],
 "data": [
  ["Pep.1dC K10R/K13T/T18A/E19I/V21D/T25M/F30L/Y33F/N35F/D47A (TTYKLILNGRTLTGETTAIADDAAMAEKVLKQFAFDNGVDGEWTYDAATKTFTVTE)", 88],
  ["Pep.1dC K13T/E19I/V21D/T25M/F30L/Y33F/N35F/D47A (TTYKLILNGKTLTGETTTIADDAAMAEKVLKQFAFDNGVDGEWTYDAATKTFTVTE)", 31],
  ["Pep.1d K13T/T18A/E19I/V21A/K28I/F30L/Y33F/V39I: SpG-β1 mutant, SEQ ID NO: 85, GST-cleaved one domain type (TTYKLILNGKTLTGETTAIAADAATAEIVLKQFANDNGIDGEWTYDDATKTFTVTE; SpG mutant)", 37],
  ["Pep.1dC K13T/T18A/E19I/V21A/K28I/F30L/Y33F/V39I: SpG-β1 mutant, SEQ ID NO: 85, GST-cleaved one domain type with Cys at the C-terminus (TTYKLILNGKTLTGETTAIAADAATAEIVLKQFANDNGIDGEWTYDDATKTFTVTE; C-terminal Cys; SpG mutant)", 51]
]}
